Cited source: PubChem BioAssay (NCI)

- System: A498 renal
- method: NCI-60 one-dose screen, 48 h (100 = growth as untreated, 0 = no growth, -100 = all killed)
- measurement.setup: 10 µM
The panel holds about 83,000 compounds, 20% with a hit somewhere; the sample as a whole holds those more often.
measured.attribute: growth (%)
Quick reminder: number only, in %, skip the unit.

Recorded growth for COC(=O)c1ccc(Cn2ccc(=O)[nH]c2=O)cc1 , please? 120

Then what about the molecule COc1ccc2nc(-c3ccccc3)cc(C(C)=O)c2c1 ? 74.8

Then what about the molecule COc1cccc2c1C(=O)c1c(O)c3c(c(O)c1C2=O)C[C@@](O)(C(=O)COC(=O)c1cccnc1)C[C@@H]3OC1CC(N)C(O)C(C)O1 (stereo not given in full) ? -56.6

Then what about the molecule COc1nc2c(c(=O)[nH]1)C(c1ccc(Oc3ccnc4cc(Cl)ccc34)c(OC)c1)C=C(c1cc(OC)c(OC)c(OC)c1)N2 (stereo not given) ? 81.9

Then what about the molecule CCCCCCCCCCCCCCCCCBr ? 64.1

Then what about the molecule CCC(OC(=O)CC(C)C)c1ccccc1 (stereo not given) ? 102

Then what about the molecule Nc1ccc(Sc2ccc3c4c2cccc4c(=O)n2c4ccccc4nc32)cc1 ? 58.8

Then what about the molecule CC(=O)n1nc(C(=O)OC(C)(C)C)c2cc(F)c(F)cc21 ? 104

Then what about the molecule CN1CCN(c2nc(-c3cccnc3)nc3sc4c(c23)CCCCCC4)CC1 ? 99.3

Then what about the molecule CCCCOCCOCCOCc1cc2c(cc1Br)OCO2 ? -60.6
